Measured values drawn from ChEMBL document CHEMBL4431301 for this set.

Molecular target: Genome polyprotein (dengue virus type 2, UniProt P29990)
Sequence (P29990 1346-1475 limits assumed): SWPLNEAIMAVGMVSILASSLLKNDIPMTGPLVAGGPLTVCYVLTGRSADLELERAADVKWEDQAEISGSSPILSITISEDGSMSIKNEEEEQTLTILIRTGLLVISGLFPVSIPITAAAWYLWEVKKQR
Sequence (P29990 1476-2093 limits assumed): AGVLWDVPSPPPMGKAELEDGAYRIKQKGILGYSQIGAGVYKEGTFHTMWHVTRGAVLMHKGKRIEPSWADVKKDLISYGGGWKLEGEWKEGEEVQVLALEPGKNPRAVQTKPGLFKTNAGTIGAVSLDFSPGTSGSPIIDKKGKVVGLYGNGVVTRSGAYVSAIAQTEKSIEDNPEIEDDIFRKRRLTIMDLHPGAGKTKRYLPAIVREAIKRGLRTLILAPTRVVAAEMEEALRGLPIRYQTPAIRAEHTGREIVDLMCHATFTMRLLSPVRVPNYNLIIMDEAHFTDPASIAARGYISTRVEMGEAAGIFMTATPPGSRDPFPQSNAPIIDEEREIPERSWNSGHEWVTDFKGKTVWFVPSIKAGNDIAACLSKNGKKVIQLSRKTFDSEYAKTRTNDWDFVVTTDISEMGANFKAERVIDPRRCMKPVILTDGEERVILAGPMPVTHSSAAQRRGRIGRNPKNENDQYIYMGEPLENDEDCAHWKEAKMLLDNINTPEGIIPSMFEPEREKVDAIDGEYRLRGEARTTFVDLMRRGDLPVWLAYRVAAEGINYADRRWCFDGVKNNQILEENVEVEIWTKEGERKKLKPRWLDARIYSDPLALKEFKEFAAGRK
Assay: Inhibition of the Dengue virus 2 NS2B-NS3 protease expressed in Escherichia coli BL21(DE3)-RIPL cells using Pyr-RTKR-AMC as substrate preincubated for 30 mins followed by addition of substrate
measurementName: IC50 (nM)
Give just the numeric value; nM need not be written.

Dear colleague, please send me the reported IC50 for "Nc1cc(N)c(/N=N/c2ccc(S(=O)(=O)Nc3nccs3)cc2)cc1/N=N/c1ccc(S(=O)(=O)Nc2nccs2)cc1" when you can. 2750

----------
Test: Cytotoxicity against human HuH7 cells assessed as cell viability after 48 hrs by Celltiter-Glo luminescent assay
Type: cell-based, Huh-7
measurementName: CC50 at 48 h

Name the recorded CC50 at 48 h of the molecule listed here: "Cc1cc(N2CCN(C)CC2)ccc1NC(=O)c1c2c(nc3ccccc13)CCN(Cc1ccccc1)C2" 55 µM

----------
Test system: dengue virus type 3
Test: Antiviral activity against Dengue virus 3 H87 infected in african green monkey Vero cells assessed as inhibition of viral yield after 48 hrs
Format: functional, organism-based
Here the recorded EC50 is given for each entry.

C=CCn1c2cc(Cl)ccc2c(=O)c2cccc(OC)c21 ... 8.3 to 15.9 µM
C=CCn1c2ccccc2c(=O)c2ccc(Cl)cc21 ... 8.3 to 15.9 µM

For the next question, use this compound.
Determine reported EC50 for "C=CCn1c2ccc(Cl)cc2c(=O)c2cccc(OC)c21" ; test system: dengue virus type 3. 13.5 to 27.1 µM

----------
Biological target: Genome polyprotein (dengue virus type 2, UniProt P29990)
Experiment: Inhibition of Dengue virus 2 NS2B-NS3 protease expressed in Escherichia coli BL21(DE3) using Boc-Gly-Arg-Arg-7-amino-4-methylcoumarin as substrate after 10 mins by fluorescence assay
measurementName: IC50

Quick one: give measured IC50 for "O=C(Nc1nc2cc(O)c(O)cc2s1)c1ccccc1Oc1ccc2cc(O)ccc2c1" 4.2 µM

----------
Assay: Selectivity index, ratio of CC50 for human A549 cells to EC50 for Dengue virus 2 infected in human A549 cells
Format: toxicity, cell-based
Details: read-out: Ratio CC50/EC50
measurementName: selectivity ratio

Provide selectivity ratio value for the following compound: "CC(=O)O[C@H]1[C@H]2c3cc4c(cc3CN3CCC(=C[C@@H]1O)[C@H]23)OCO4" > 750

----------
Target: Genome polyprotein (dengue virus type 2)
Assay: Inhibition of recombinant Dengue virus type 2 NS2B-NS3 protease expressed in Escherichia coli C41 cells using GRR-AMC as substrate after 15 mins by fluorescence assay
Where a SMILES comes first, the peptide text is derived from it.
measurementName: Ki (µM)
Note: unit µM is implicit; provide only the numeric part.

Kindly indicate its recorded Ki. Item: CC(=O)N[C@@H](CCCNC(=N)N)C(=O)N[C@H](C(=O)N[C@@H](CO)C(=O)N[C@@H](CCCCN)C(=O)N[C@@H](CCCCN)C(=O)N[C@@H](CCCNC(=N)N)C(N)=O)[C@@H](C)O (Ac-RTSKKR-NH2) 12

----------
Target: Nonstructural protein 5 (Dengue virus, UniProt V5TFZ2)
Sequence (V5TFZ2 whole entry): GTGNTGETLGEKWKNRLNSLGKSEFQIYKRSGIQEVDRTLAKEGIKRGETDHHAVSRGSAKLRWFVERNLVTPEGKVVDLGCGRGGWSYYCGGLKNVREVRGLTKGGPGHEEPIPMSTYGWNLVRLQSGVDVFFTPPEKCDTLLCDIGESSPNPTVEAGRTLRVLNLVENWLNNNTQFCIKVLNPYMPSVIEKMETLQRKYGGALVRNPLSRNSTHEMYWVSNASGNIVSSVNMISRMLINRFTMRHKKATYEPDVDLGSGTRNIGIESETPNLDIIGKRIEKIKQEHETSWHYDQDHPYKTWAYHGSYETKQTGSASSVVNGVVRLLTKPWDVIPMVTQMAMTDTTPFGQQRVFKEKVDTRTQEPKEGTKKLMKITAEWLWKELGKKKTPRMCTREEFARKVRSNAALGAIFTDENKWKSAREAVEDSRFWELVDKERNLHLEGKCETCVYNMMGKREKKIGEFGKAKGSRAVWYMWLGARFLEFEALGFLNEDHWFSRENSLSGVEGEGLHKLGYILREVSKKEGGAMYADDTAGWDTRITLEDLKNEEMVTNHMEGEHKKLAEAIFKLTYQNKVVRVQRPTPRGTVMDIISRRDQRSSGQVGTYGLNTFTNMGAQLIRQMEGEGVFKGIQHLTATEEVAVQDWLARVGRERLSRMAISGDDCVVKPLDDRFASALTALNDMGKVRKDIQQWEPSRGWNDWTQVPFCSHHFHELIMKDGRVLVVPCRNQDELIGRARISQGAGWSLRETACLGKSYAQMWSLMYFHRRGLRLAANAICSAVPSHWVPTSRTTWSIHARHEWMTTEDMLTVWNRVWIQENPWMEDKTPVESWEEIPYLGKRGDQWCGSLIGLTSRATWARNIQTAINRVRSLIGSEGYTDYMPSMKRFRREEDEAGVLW
Assay: Inhibition of N-terminal GST tagged recombinant Dengue virus 3 2'-O methyltransferase expressed in Escherichia coli BL21 cells by scintillation counting analysis
measurementName: pKi
// scale note: pKi = -log10(conc_M); give the bare number

Quickly give me recorded pKi for "N[C@@H](CCSC[C@H]1O[C@@H](n2cnc3c(NCc4cccc(Cl)c4)ncnc32)[C@H](O)[C@@H]1O)C(=O)O" 6.77
